meta.source: patent US6677460B1

Tested on: corn
METHOD DESCRIPTION: Upland soil treatment test (5), phytotoxicity
Format: in vivo
COND: dosage 100 g a.i./hectare, 20th day after treatment
Attribute: Phyto-toxicity to corn
READOUT NAME: Phyto-toxicity to corn

> print(dat)
                                   compound  reported.value
1  CCn1ncc(C(=O)c2ccc3c(c2C)C(C)(C)CCS3)c1O [Compound 2]         0 (100)
2  CCn1ncc(C(=O)c2cc(C)c3c(c2C)C(C)(C)CCS3(=O)=O)c1OS(C)(=O)=O [Compound 7]         0 (100)
3  CCn1ncc(C(=O)c2cc(C)c3c(c2C)C(C)(C)CCS3(=O)=O)c1OCC(=O)c1ccccc1 [Compound 25]         0 (100)
